Run Description: Inhibition of TNFalpha-PLAP (unknown origin)
Readout Kind: IC50 (nM)
Lab book: enter the figure in nM, no units written.

GET /value?item= `COc1cc(O)c2c(c1)/C=C/C[C@H](O)[C@H](O)C(=O)/C(F)=C\C[C@H](C)OC2=O` &field=IC50 returns 36
